// provenance: paper PMC10786891

Target: T1, EsCas13d, nuclease-dead (Eubacterium siraeum, UniProt B0MS50, R295A;H300A;R849A;H854A)
T1 sequence: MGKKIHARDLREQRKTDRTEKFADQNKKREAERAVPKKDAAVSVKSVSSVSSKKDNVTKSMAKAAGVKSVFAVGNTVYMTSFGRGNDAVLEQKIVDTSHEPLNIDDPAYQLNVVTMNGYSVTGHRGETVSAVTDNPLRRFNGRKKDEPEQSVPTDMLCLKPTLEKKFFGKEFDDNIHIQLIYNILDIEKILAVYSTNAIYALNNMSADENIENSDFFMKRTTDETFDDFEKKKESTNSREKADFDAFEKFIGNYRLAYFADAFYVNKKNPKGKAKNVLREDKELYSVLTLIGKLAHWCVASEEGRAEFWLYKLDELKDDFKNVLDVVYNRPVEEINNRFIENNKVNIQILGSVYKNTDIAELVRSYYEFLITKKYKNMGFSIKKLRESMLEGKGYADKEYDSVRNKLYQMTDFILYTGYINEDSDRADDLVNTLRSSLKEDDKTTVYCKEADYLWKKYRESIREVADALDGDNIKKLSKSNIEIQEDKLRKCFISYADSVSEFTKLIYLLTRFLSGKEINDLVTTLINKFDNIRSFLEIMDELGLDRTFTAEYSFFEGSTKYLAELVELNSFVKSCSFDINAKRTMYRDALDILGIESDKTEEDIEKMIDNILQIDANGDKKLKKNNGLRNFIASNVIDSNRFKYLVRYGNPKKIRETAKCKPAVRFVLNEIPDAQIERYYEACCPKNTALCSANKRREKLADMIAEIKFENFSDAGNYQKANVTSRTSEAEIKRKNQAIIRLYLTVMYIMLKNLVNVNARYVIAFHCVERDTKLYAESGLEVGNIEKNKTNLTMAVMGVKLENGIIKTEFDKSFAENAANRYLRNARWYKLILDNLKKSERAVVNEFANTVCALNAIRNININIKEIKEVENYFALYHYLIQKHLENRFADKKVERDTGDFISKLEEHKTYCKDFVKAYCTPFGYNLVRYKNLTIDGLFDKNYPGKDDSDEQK
Assay: crRNA (strand 1, pre-loaded); Mg2+; 40 mM Tris-HCl pH 7.5, 150 mM NaCl, 6 mM MgCl2, 1 mM DTT, 0.1% Tween-20, 0.2 mg/ml BSA; 25 C; 10 min per concentration, then washed
Conditions: tags: His6-TwinStrep-SUMO cleaved; N-terminal SNAP kept (SNAP-Surface 488); label: 3' end held by stalled T7 RNA polymerase
The following binders are shown together with reported Kd values.

- BINDER: "target 2 MT 5'PFS CGC 3'PFS CGA (mixed) RNA 1: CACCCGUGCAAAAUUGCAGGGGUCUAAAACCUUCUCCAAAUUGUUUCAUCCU RNA 2: GGGAAUGGAUCCACAUCUACGAAUUCCGCAGGAUGAAACAAUUUGGAGAAGCGAAGAUCGGAAGAGCACACGU"
  Kd (nM): 6.7
- BINDER: "target 2 MT 5'PFS CGG 3'PFS ACC (mixed) RNA 1: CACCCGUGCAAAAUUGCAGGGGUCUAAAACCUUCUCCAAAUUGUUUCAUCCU RNA 2: GGGAAUGGAUCCACAUCUACGAAUUCCGGAGGAUGAAACAAUUUGGAGAAGACCAGAUCGGAAGAGCACACGU"
  Kd (nM): 12
- BINDER: "target 1 del4,del13 (mixed) RNA 1: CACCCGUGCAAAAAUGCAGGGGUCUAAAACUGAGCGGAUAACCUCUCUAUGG RNA 2: GGGAAUGGAUCCACAUCUACGAAUUCGUACCAUAGAGAGUUAUCCGUCACCGAGAUCGGAAGAGCACACGU"
  Kd (nM): 16.5
